# tested_on: IKZF2 (Homo sapiens, UniProt Q96SW2+Q9UKS7)
# Sequence (Q9UKS7 whole entry): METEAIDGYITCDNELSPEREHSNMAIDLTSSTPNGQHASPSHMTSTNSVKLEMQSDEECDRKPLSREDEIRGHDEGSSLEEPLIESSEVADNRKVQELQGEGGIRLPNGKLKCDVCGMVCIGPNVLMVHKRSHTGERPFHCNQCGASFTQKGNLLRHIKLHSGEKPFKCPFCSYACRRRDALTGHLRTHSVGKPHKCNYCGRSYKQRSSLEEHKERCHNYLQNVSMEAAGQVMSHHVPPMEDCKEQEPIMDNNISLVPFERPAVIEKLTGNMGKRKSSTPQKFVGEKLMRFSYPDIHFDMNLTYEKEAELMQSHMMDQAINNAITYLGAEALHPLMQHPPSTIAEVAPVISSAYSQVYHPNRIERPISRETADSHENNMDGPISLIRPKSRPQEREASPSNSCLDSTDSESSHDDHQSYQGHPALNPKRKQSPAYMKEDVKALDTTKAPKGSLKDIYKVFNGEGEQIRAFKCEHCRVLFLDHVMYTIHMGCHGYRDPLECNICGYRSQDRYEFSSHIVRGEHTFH
# Sequence (Q96SW2 whole entry): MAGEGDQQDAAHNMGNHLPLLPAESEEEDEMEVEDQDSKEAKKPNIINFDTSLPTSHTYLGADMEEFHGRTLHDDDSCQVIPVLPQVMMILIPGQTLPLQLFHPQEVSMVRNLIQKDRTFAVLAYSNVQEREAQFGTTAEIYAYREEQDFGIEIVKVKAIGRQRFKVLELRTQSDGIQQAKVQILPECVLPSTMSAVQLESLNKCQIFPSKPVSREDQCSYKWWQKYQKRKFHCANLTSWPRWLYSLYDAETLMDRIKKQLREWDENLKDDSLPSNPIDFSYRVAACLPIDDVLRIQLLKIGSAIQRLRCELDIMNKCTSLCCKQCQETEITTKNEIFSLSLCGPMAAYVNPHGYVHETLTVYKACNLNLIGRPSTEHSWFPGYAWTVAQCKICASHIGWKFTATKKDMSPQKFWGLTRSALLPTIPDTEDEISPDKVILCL
# Sequence (Q16531 whole entry partner): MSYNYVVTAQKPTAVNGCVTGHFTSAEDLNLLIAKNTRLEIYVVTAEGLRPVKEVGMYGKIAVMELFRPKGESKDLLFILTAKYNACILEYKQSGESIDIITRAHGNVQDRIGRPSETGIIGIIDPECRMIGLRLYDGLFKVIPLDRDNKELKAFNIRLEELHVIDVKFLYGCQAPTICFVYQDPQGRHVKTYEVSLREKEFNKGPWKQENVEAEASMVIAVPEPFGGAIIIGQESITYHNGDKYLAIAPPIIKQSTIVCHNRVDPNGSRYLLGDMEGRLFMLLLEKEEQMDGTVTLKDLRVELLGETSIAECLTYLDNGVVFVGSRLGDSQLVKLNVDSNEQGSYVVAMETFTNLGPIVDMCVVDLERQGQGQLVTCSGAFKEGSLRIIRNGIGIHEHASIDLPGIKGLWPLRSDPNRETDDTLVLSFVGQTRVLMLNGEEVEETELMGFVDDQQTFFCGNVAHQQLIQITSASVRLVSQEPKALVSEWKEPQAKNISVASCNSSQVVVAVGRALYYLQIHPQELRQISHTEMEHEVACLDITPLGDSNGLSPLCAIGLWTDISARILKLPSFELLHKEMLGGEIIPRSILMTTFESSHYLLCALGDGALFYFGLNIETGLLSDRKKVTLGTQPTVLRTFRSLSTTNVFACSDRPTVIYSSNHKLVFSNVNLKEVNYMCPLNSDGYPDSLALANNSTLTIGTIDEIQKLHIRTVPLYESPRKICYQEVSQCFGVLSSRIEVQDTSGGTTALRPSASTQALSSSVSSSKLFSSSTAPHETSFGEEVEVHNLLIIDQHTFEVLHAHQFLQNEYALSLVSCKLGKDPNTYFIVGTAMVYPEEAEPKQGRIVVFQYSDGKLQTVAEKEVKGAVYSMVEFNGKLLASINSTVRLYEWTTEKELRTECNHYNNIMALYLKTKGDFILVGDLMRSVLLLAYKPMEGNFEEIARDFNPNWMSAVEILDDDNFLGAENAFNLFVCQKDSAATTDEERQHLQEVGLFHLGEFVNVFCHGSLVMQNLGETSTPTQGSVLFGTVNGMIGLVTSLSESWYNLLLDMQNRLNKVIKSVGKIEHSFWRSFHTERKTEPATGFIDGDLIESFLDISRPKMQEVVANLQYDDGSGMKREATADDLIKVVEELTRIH
# assay_remarks: Prolabel quantification of IKZF2 protein levels in 293GT cells
# Format: cell-based
# condition_summary: Prolabel assay, 293GT cells; read-out: IKZF2 EC50
measurement_label: DC50 (nM)

{"columns": ["compound", "tested_on", "measurement_label", "comparison_sign", "measured_value"],
 "data": [
  ["O=C1CCC(N2Cc3cc(C4CCN(Cc5ccc(C(F)(F)F)cc5)CC4)ccc3C2=O)C(=O)N1 (stereo not drawn)", "IKZF2 (Homo sapiens, UniProt Q96SW2+Q9UKS7)", "DC50", "=", 17],
  ["CC(C)CN1CCC(c2ccc3c(c2)CN(C2CCC(=O)NC2=O)C3=O)CC1 (stereo not drawn)", "IKZF2 (Homo sapiens, UniProt Q96SW2+Q9UKS7)", "DC50", "=", 31],
  ["O=C1CCC(N2Cc3cc(C4CCN(Cc5cccnc5)CC4)ccc3C2=O)C(=O)N1 (stereo not drawn)", "IKZF2 (Homo sapiens, UniProt Q96SW2+Q9UKS7)", "DC50", "=", 31],
  ["O=C1CCC(N2Cc3cc(C4CCN(Cc5cnn(-c6ccccc6)c5)CC4)ccc3C2=O)C(=O)N1 (stereo not drawn)", "IKZF2 (Homo sapiens, UniProt Q96SW2+Q9UKS7)", "DC50", "=", 12],
  ["O=C1CCC(N2Cc3cc(C4CCN([C@@H](CO)c5ccccc5)CC4)ccc3C2=O)C(=O)N1 (single isomer, unassigned)", "IKZF2 (Homo sapiens, UniProt Q96SW2+Q9UKS7)", "DC50", "=", 590],
  ["COC1CCN(c2ccc(CN3CCC(c4ccc5c(c4)CN(C4CCC(=O)NC4=O)C5=O)CC3)cc2)CC1 (stereo not drawn)", "IKZF2 (Homo sapiens, UniProt Q96SW2+Q9UKS7)", "DC50", "=", 4],
  ["O=C1CCC(N2Cc3cc(C4CCN(Cc5cscn5)CC4)ccc3C2=O)C(=O)N1 (stereo not drawn)", "IKZF2 (Homo sapiens, UniProt Q96SW2+Q9UKS7)", "DC50", "=", 110],
  ["O=C1CCC(N2Cc3cc(C4CCN(Cc5ccccc5)C4)ccc3C2=O)C(=O)N1 (stereo not drawn)", "IKZF2 (Homo sapiens, UniProt Q96SW2+Q9UKS7)", "DC50", ">", 30000],
  ["N#Cc1cccc(CN2CCC(c3ccc4c(c3)CN(C3CCC(=O)NC3=O)C4=O)CC2)c1 (stereo not drawn)", "IKZF2 (Homo sapiens, UniProt Q96SW2+Q9UKS7)", "DC50", "=", 17],
  ["O=C1CCC(N2Cc3cc(C4CCN(C(c5ccccc5)C(F)(F)F)CC4)ccc3C2=O)C(=O)N1 (stereo not drawn)", "IKZF2 (Homo sapiens, UniProt Q96SW2+Q9UKS7)", "DC50", ">", 50000],
  ["N#Cc1cccc(CN2CCC(c3ccc4c(c3)CN(C3CCC(=O)NC3=O)C4=O)CC2)n1 (stereo not drawn)", "IKZF2 (Homo sapiens, UniProt Q96SW2+Q9UKS7)", "DC50", "=", 8],
  ["O=C1CCC(N2Cc3cc(C4CCN(Cc5ccnc6ccccc56)CC4)ccc3C2=O)C(=O)N1 (stereo not drawn)", "IKZF2 (Homo sapiens, UniProt Q96SW2+Q9UKS7)", "DC50", "=", 19],
  ["O=C1CCC(N2Cc3cc(C4CCN(CC(F)(F)F)CC4)ccc3C2=O)C(=O)N1 (stereo not drawn)", "IKZF2 (Homo sapiens, UniProt Q96SW2+Q9UKS7)", "DC50", ">", 50000],
  ["O=C1CCC(N2Cc3cc(C4CCN(Cc5cn[nH]c5)CC4)ccc3C2=O)C(=O)N1 (stereo not drawn)", "IKZF2 (Homo sapiens, UniProt Q96SW2+Q9UKS7)", "DC50", "=", 160],
  ["Cc1cn(C)c(CN2CCC(c3ccc4c(c3)CN(C3CCC(=O)NC3=O)C4=O)CC2)n1 (stereo not drawn)", "IKZF2 (Homo sapiens, UniProt Q96SW2+Q9UKS7)", "DC50", "=", 190]
]}

###

# tested_on: IKZF2 (Homo sapiens, UniProt Q96SW2+Q9UKS7)
# assay_remarks: Prolabel quantification of IKZF2 protein levels in 293GT cells
# Assay type: cell-based
# condition_summary: 24 h, 10 μM, 24 h, 293GT cells; read-out: IKZF2 % protein reduction at 10 μM, 24 h
Quick reference for inhibition at 10 µM among some molecules

{"columns": ["molecule", "inhibition at 10 µM [%]"],
 "data": [
  ["O=C1CCC(N2Cc3cc(C4CCN(C(c5ccccc5)C(F)(F)F)CC4)ccc3C2=O)C(=O)N1 (stereo not shown) [Compound I-224]", 0],
  ["O=C1CCC(N2Cc3cc(C4CCN(Cc5cn(C6CCC6)nn5)CC4)ccc3C2=O)C(=O)N1 (stereo not shown) [Compound I-134]", 80],
  ["O=C1CCC(N2Cc3cc(C4CCN(Cc5ccc6c(c5)OC(F)(F)O6)CC4)ccc3C2=O)C(=O)N1 (stereo not shown) [Compound I-87]", 80],
  ["O=C1CCC(N2Cc3cc(C4CCN(Cc5ccc(S(=O)(=O)C(F)F)cc5)CC4)ccc3C2=O)C(=O)N1 (stereo not shown) [Compound I-252]", 75],
  ["O=C1CCC(N2Cc3cc(C4CCN(Cc5cccnc5)CC4)ccc3C2=O)C(=O)N1 (stereo not shown) [Compound I-59]", 80],
  ["Cc1cc(CN2CCC(c3ccc4c(c3)CN(C3CCC(=O)NC3=O)C4=O)CC2)on1 (stereo not shown) [Compound I-245]", 40],
  ["O=C1CCC(N2Cc3cc(C4CCN(Cc5cnn(-c6ccccc6)c5)CC4)ccc3C2=O)C(=O)N1 (stereo not shown) [Compound I-288]", 80]
]}

###

# tested_on: IKZF2 (Homo sapiens, UniProt Q96SW2+Q9UKS7)
# assay_remarks: Prolabel quantification of IKZF2 protein levels in 293GT cells
# Assay type: cell-based
# condition_summary: Prolabel assay, 293GT cells; read-out: IKZF2 EC50
Binarize DC50 at 0.08 µM; below is class 1, at or above is class 0.

{"columns": ["molecule", "class_assignment"],
 "data": [
  ["O=C1CCC(N2Cc3cc(C4CCN(Cc5c[nH]nc5-c5cccnc5)CC4)ccc3C2=O)C(=O)N1 (centres unmarked) [Compound I-151]", "class 0"],
  ["O=C1CCC(N2Cc3cc(C4CCN(Cc5ccc(Cl)cc5)CC4)ccc3C2=O)C(=O)N1 (centres unmarked) [Compound I-97]", "class 1"],
  ["O=C1CCC(N2Cc3cc(C4CCN(Cc5ccc(C(F)(F)F)cn5)CC4)ccc3C2=O)C(=O)N1 (centres unmarked) [Compound I-78]", "class 0"],
  ["Cn1cc(CN2CCC(c3ccc4c(c3)CN(C3CCC(=O)NC3=O)C4=O)CC2)cn1 (centres unmarked) [Compound I-115]", "class 1"],
  ["O=C1CCC(N2Cc3cc(C4CCN(Cc5c[nH]nc5-c5ccccc5)CC4)ccc3C2=O)C(=O)N1 (centres unmarked) [Compound I-148]", "class 1"],
  ["CCOc1ccc(CN2CCC(c3ccc4c(c3)CN(C3CCC(=O)NC3=O)C4=O)CC2)cc1 (centres unmarked) [Compound I-287]", "class 1"],
  ["Nc1ncc(CN2CCC(c3ccc4c(c3)CN(C3CCC(=O)NC3=O)C4=O)CC2)cn1 (centres unmarked) [Compound I-122]", "class 1"],
  ["O=C1CCC(N2Cc3cc(C4CCN(Cc5cc6ccccc6[nH]5)CC4)ccc3C2=O)C(=O)N1 (centres unmarked) [Compound I-136]", "class 1"]
]}

###

# tested_on: IKZF2 (Homo sapiens, UniProt Q96SW2+Q9UKS7)
# assay_remarks: Prolabel quantification of IKZF2 protein levels in 293GT cells
# Assay type: cell-based
# condition_summary: 24 h, 10 μM, 24 h, 293GT cells; read-out: IKZF2 % protein reduction at 10 μM, 24 h

{"columns": ["molecule", "tested_on", "inhibition at 10 µM [%]"],
 "data": [
  ["O=C1CCC(N2Cc3cc(C4CCN(Cc5cccc6c5OCCO6)CC4)ccc3C2=O)C(=O)N1 (centres unmarked)", "IKZF2 (Homo sapiens, UniProt Q96SW2+Q9UKS7)", 60],
  ["NC(=O)c1ccc(CN2CCC(c3ccc4c(c3)CN(C3CCC(=O)NC3=O)C4=O)CC2)cc1 (centres unmarked)", "IKZF2 (Homo sapiens, UniProt Q96SW2+Q9UKS7)", 80],
  ["Nc1ccc(CN2CCC(c3ccc4c(c3)CN(C3CCC(=O)NC3=O)C4=O)CC2)cn1 (centres unmarked)", "IKZF2 (Homo sapiens, UniProt Q96SW2+Q9UKS7)", 75],
  ["O=C1CCC(N2Cc3cc(C4CCN(Cc5ccc(CF)cc5)CC4)ccc3C2=O)C(=O)N1 (centres unmarked)", "IKZF2 (Homo sapiens, UniProt Q96SW2+Q9UKS7)", 75],
  ["O=C1CCC(N2Cc3cc(C4CCN(CC5CCCCC5)CC4)ccc3C2=O)C(=O)N1 (centres unmarked)", "IKZF2 (Homo sapiens, UniProt Q96SW2+Q9UKS7)", 65],
  ["CC(C)(C)c1nc(CN2CCC(c3ccc4c(c3)CN(C3CCC(=O)NC3=O)C4=O)CC2)cs1 (centres unmarked)", "IKZF2 (Homo sapiens, UniProt Q96SW2+Q9UKS7)", 60],
  ["O=C1CCC(N2Cc3cc(C4CCN(Cc5ccc(C(=O)O)cc5)CC4)ccc3C2=O)C(=O)N1 (centres unmarked)", "IKZF2 (Homo sapiens, UniProt Q96SW2+Q9UKS7)", 55],
  ["CC(C)n1nccc1CN1CCC(c2ccc3c(c2)CN(C2CCC(=O)NC2=O)C3=O)CC1 (centres unmarked)", "IKZF2 (Homo sapiens, UniProt Q96SW2+Q9UKS7)", 60]
]}
